Assign IC50 to each entry below.
experimental system: various mutants of kinase EGFR (BaF3 cell lines stably transfected with kinase) (Homo sapiens, UniProt P00533, L858R/T790M)
Construct: expressed in transfected cells; host or cells: BaF3
Sequence (P00533 25-1210 T790M/L858R): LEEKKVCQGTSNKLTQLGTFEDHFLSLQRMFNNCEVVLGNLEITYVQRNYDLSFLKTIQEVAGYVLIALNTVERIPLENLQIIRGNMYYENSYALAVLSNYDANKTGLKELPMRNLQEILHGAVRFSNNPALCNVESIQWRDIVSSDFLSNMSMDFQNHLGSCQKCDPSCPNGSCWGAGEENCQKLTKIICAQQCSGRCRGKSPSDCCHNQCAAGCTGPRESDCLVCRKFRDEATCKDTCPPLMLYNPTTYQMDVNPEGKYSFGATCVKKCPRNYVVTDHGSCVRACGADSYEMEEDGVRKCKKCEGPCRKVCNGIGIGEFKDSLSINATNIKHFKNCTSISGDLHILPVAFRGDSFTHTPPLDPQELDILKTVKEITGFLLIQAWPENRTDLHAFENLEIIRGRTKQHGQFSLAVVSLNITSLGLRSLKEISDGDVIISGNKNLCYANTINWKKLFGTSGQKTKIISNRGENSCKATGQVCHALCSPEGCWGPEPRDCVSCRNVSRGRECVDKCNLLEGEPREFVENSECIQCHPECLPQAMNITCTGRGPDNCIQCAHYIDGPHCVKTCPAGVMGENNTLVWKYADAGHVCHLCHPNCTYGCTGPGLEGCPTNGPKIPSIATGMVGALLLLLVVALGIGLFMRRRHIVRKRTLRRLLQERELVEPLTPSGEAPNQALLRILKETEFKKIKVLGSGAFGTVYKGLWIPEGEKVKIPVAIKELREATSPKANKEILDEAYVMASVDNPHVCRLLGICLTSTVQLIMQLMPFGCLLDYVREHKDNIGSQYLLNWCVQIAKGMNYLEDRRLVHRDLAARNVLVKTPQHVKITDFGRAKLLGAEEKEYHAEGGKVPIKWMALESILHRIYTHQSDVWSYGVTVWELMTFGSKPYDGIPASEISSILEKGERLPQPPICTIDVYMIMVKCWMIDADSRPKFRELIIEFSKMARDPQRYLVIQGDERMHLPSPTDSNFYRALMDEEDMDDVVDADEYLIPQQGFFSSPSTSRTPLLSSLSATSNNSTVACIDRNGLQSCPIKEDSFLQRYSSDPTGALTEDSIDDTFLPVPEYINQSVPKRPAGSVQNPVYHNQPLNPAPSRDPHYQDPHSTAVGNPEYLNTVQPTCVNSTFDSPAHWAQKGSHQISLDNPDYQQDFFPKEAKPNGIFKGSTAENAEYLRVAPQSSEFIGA
protocol summary: Growth inhibitory activity of compounds on BaF3 cell lines stably transfected with kinase (MTS, 48 h)
Type: cell-based
applied conditions: BaF3 cell line stably transfected with EGFR L858R/T790M, read-out: L858R/ T790M growth inhibitory activity IC50

CCc1cc(Nc2nccc(Nc3ccc4nccnc4c3N(C)S(C)(=O)=O)n2)ccc1N1CCC(N2CCN(C)CC2)CC1 [Compound I-344] :: ≤ 50 nM
COc1cc(N2CCC(N3CCN(C)CC3)CC2)c(C)cc1Nc1ncc(Br)c(Nc2ccc3nccnc3c2NS(C)(=O)=O)n1 [Compound I-402] :: ≤ 50 nM
COc1cc(N2CCC(N(C)C)CC2)c(C)cc1Nc1nc(Nc2ccc3nccnc3c2N(C)S(C)(=O)=O)c2[nH]ccc2n1 [II-1-31] :: 500 to 2500 nM

Here is the next item to consider.
Query: Quick check: IC50 of COc1ccc(N2CCC(O)CC2)cc1Nc1ncc(Br)c(Nc2ccc3nccnc3c2N(C)S(=O)(=O)C(C)C)n1 [Compound I-376] ?
Reply: ≤ 50 nM

Cited source for all entries: patent US20230310428A1
